Exercise: for every item that follows, state its recorded % Inhibition of UV-induced lipid peroxidation.
Tested on: lipid peroxidation in homogenate of murine swiss 3T3 cells
Experiment: Inhibitory effects on UV-induced lipid peroxidation (homogenate of murine swiss 3T3 cells)
Format: biochemical
Settings: 1 mM test compound; UVB 0.4 mW/cm^2, 90 min; pH 7.2 to 7.8; TBA, 535 nm
Give bare numbers, in %.

The following molecules have reported results that may help.
>>> print(df.to_string())
                                   molecule  result
0  O=C(O)CCNCc1ccccc1O [Synthesis Example 12]      29
1  O=C(O)C(Cc1ccc(O)cc1)NCc1ccccc1O (stereo not drawn) [Synthesis Example 4]      60

Item under review: O=C(O)C(CCO)NCc1ccccc1O (stereo not drawn) [Synthesis Example 3] . Reported % Inhibition of UV-induced lipid peroxidation? 65

This collection of values is drawn from patent US5594012A.
